- Test system: Escherichia coli TOP10
- EXPERIMENTAL DETAILS: shrunken log2 fold change of peptide-encoding DNA abundance (4.5 h post-induction vs induction); higher = less antimicrobial activity (less host growth inhibition)
- CONDITION INFO: time post-induction: 4.5 h; library: site-saturation at positions 5, 18, 19, 20
Classification field: enter condition met for shrunken log2 fold change values not below -0.3, condition not met for values below it.

# SEQUENCE, CLASS ASSIGNMENT
measured = [
    ("RRIRSRPPRLPRPRPRPRHKPRP", "condition met"),
    ("RRIRVRPPRLPRPRPRPEPLPRP", "condition met"),
    ("RRIRCRPPRLPRPRPRPHSDPRP", "condition not met"),
    ("RRIRERPPRLPRPRPRPIAVPRP", "condition met"),
    ("RRIRERPPRLPRPRPRPDDMPRP", "condition met"),
    ("RRIRMRPPRLPRPRPRPSTYPRP", "condition not met"),
    ("RRIRARPPRLPRPRPRPMCKPRP", "condition met"),
    ("RRIRYRPPRLPRPRPRPTRAPRP", "condition met"),
]

----------
- Tested on: Escherichia coli TOP10;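 further: peptides expressed intracellularly from a pBAD plasmid library in pooled LB shake-flask culture, induced with 0.3% L-arabinose, DNA abundance read by NGS, three biological replicates, DESeq2 with apeglm shrinkage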
- EXPERIMENTAL DETAILS: shrunken log2 fold change of peptide-encoding DNA abundance (4.5 h post-induction vs induction); higher = less antimicrobial activity (less host growth inhibition)
- CONDITION INFO: time post-induction: 4.5 h; library: site-saturation at positions 5, 18, 19, 20
Each item that follows carries a reported shrunken log2 fold change.

# SEQUENCE, MEASUREMENT TARGET, shrunken log2 fold change
records = [
    ("RRIRNRPPRLPRPRPRPEWGPRP", "Escherichia coli TOP10", 0.114),
    ("RRIRNRPPRLPRPRPRPGAFPRP", "Escherichia coli TOP10", -0.0452),
    ("RRIRTRPPRLPRPRPRPCWVPRP", "Escherichia coli TOP10", -0.42),
    ("RRIRTRPPRLPRPRPRPRIRPRP", "Escherichia coli TOP10", 0.0303),
    ("RRIRDRPPRLPRPRPRPPNPPRP", "Escherichia coli TOP10", 0.0735),
    ("RRIRSRPPRLPRPRPRPFINPRP", "Escherichia coli TOP10", -0.639),
    ("RRIRARPPRLPRPRPRPSRMPRP", "Escherichia coli TOP10", 0.362),
    ("RRIRGRPPRLPRPRPRPSYPPRP", "Escherichia coli TOP10", -0.215),
    ("RRIRMRPPRLPRPRPRPLVAPRP", "Escherichia coli TOP10", 1.16),
    ("RRIRTRPPRLPRPRPRPAWQPRP", "Escherichia coli TOP10", -0.0092),
    ("RRIRFRPPRLPRPRPRPMMDPRP", "Escherichia coli TOP10", 0.0995),
    ("RRIRGRPPRLPRPRPRPLKMPRP", "Escherichia coli TOP10", 0.27),
    ("RRIRNRPPRLPRPRPRPCDQPRP", "Escherichia coli TOP10", -0.0229),
    ("RRIRCRPPRLPRPRPRPVMCPRP", "Escherichia coli TOP10", -0.127),
    ("RRIRYRPPRLPRPRPRPGDNPRP", "Escherichia coli TOP10", -0.0446),
    ("RRIRWRPPRLPRPRPRPINSPRP", "Escherichia coli TOP10", -0.498),
    ("RRIRTRPPRLPRPRPRPICKPRP", "Escherichia coli TOP10", -0.0914),
    ("RRIRHRPPRLPRPRPRPPIGPRP", "Escherichia coli TOP10", 0.0617),
    ("RRIRIRPPRLPRPRPRPMRCPRP", "Escherichia coli TOP10", -0.0263),
    ("RRIRWRPPRLPRPRPRPACDPRP", "Escherichia coli TOP10", 0.788),
    ("RRIRQRPPRLPRPRPRPNTQPRP", "Escherichia coli TOP10", -0.621),
    ("RRIRYRPPRLPRPRPRPVRYPRP", "Escherichia coli TOP10", -0.157),
    ("RRIRARPPRLPRPRPRPWYKPRP", "Escherichia coli TOP10", -0.229),
    ("RRIRVRPPRLPRPRPRPKLSPRP", "Escherichia coli TOP10", -0.0136),
    ("RRIRGRPPRLPRPRPRPMPFPRP", "Escherichia coli TOP10", 0.118),
    ("RRIRVRPPRLPRPRPRPQSEPRP", "Escherichia coli TOP10", -0.107),
    ("RRIRERPPRLPRPRPRPWCEPRP", "Escherichia coli TOP10", -0.349),
    ("RRIRARPPRLPRPRPRPSGNPRP", "Escherichia coli TOP10", 0.0499),
    ("RRIRCRPPRLPRPRPRPPNIPRP", "Escherichia coli TOP10", -0.573),
    ("RRIRVRPPRLPRPRPRPFWSPRP", "Escherichia coli TOP10", 0.0887),
    ("RRIRVRPPRLPRPRPRPQITPRP", "Escherichia coli TOP10", -0.229),
    ("RRIRMRPPRLPRPRPRPLWPPRP", "Escherichia coli TOP10", 0.616),
    ("RRIRQRPPRLPRPRPRPTSYPRP", "Escherichia coli TOP10", -0.154),
    ("RRIRIRPPRLPRPRPRPSSCPRP", "Escherichia coli TOP10", -0.17),
    ("RRIRCRPPRLPRPRPRPGRTPRP", "Escherichia coli TOP10", -0.106),
    ("RRIRSRPPRLPRPRPRPCKIPRP", "Escherichia coli TOP10", -0.177),
    ("RRIRRRPPRLPRPRPRPPFQPRP", "Escherichia coli TOP10", 0.746),
    ("RRIRKRPPRLPRPRPRPGKMPRP", "Escherichia coli TOP10", -0.0991),
    ("RRIRKRPPRLPRPRPRPAVLPRP", "Escherichia coli TOP10", -0.025),
    ("RRIRMRPPRLPRPRPRPRAKPRP", "Escherichia coli TOP10", 1.25),
    ("RRIRFRPPRLPRPRPRPDTEPRP", "Escherichia coli TOP10", -0.776),
    ("RRIRYRPPRLPRPRPRPAEDPRP", "Escherichia coli TOP10", -0.176),
    ("RRIRFRPPRLPRPRPRPMMSPRP", "Escherichia coli TOP10", -0.0228),
    ("RRIRPRPPRLPRPRPRPSTNPRP", "Escherichia coli TOP10", -0.301),
    ("RRIRWRPPRLPRPRPRPPGRPRP", "Escherichia coli TOP10", 0.877),
    ("RRIRPRPPRLPRPRPRPCRSPRP", "Escherichia coli TOP10", -0.136),
    ("RRIRRRPPRLPRPRPRPQTGPRP", "Escherichia coli TOP10", 0.0354),
    ("RRIRMRPPRLPRPRPRPYVHPRP", "Escherichia coli TOP10", -0.0522),
    ("RRIRNRPPRLPRPRPRPYAQPRP", "Escherichia coli TOP10", -0.55),
    ("RRIRLRPPRLPRPRPRPKQWPRP", "Escherichia coli TOP10", 0.176),
    ("RRIRMRPPRLPRPRPRPYNAPRP", "Escherichia coli TOP10", -0.439),
    ("RRIRRRPPRLPRPRPRPNDYPRP", "Escherichia coli TOP10", -0.407),
    ("RRIRIRPPRLPRPRPRPDCNPRP", "Escherichia coli TOP10", -0.164),
    ("RRIRPRPPRLPRPRPRPKVQPRP", "Escherichia coli TOP10", 0.327),
    ("RRIRFRPPRLPRPRPRPQYRPRP", "Escherichia coli TOP10", -0.171),
    ("RRIRKRPPRLPRPRPRPYTHPRP", "Escherichia coli TOP10", -0.376),
    ("RRIRCRPPRLPRPRPRPKMMPRP", "Escherichia coli TOP10", -0.113),
    ("RRIRARPPRLPRPRPRPEGHPRP", "Escherichia coli TOP10", 0.223),
    ("RRIRFRPPRLPRPRPRPCFQPRP", "Escherichia coli TOP10", -0.227),
    ("RRIRHRPPRLPRPRPRPFCEPRP", "Escherichia coli TOP10", -0.394),
    ("RRIRFRPPRLPRPRPRPNALPRP", "Escherichia coli TOP10", -0.347),
    ("RRIRLRPPRLPRPRPRPEFFPRP", "Escherichia coli TOP10", 0.02),
    ("RRIRHRPPRLPRPRPRPFYLPRP", "Escherichia coli TOP10", -0.915),
]
